- System: SF-539 CNS
- Test Method Notes: NCI-60 one-dose screen, 48 h (100 = growth as untreated, 0 = no growth, -100 = all killed)
- Experimental Context: 10 µM unless noted
Compounds without any hit were thinned out: in the full panel of roughly 83,000, 20% have a hit.
Property Measured: growth (%)
Reply with just the number (in %).

**Query** Which growth value is on record for "Cc1ccc(/C=C2\CN(C(=O)OC(C)(C)C)C/C(=C\c3ccc(C)cc3)C2=O)cc1" ?
**Result** 90.4

**Query** Which growth value is on record for "N#Cc1c(-c2ccc(Cl)cc2)nc(SCC(=O)NC2=NN=C(c3ccccc3)CS2)[nH]c1=O" ?
**Result** 91.4

**Query** Which growth value is on record for COc1ccc(/C=N/C2=C(C#N)C(c3cccc(Cl)c3)c3c(ccc4ccccc34)O2)cc1 (stereo not given) ?
**Result** 7.29

**Query** Which growth value is on record for "CN(C)CCNC(=O)c1cccc(-c2cnc3ccc(-c4ccc5c(c4)OCO5)nn23)c1" ?
**Result** 66.9

**Query** Which growth value is on record for "COC(=O)c1c2c(c(C)[n+]([O-])c1C)C(=O)C(NCc1ccc(Cl)cc1)=CC2=O" ?
**Result** 85.3

**Query** Which growth value is on record for "Clc1ccc(Sc2cnc(-c3ccccc3)o2)cc1" ?
**Result** 96

**Query** Which growth value is on record for CCCCCCC1(C)NCCO1 (stereo not given) ?
**Result** 110

**Query** Which growth value is on record for "CCN(CC)C(=S)SC(SC(=S)N(CC)CC)C(=O)c1nnn(-c2ccc([N+](=O)[O-])cc2)c1C" ?
**Result** 98.3

**Query** Which growth value is on record for "c1cc2[nH]ncc2cc1-c1nc2ccc3[nH]ncc3c2c2c1CCCC2" ?
**Result** -7.82

**Query** Which growth value is on record for "CCCc1cc(NC)nc(S(=O)(=O)CC)n1" ?
**Result** 100

Sourced from PubChem BioAssay (NCI)
